Measured values drawn from the DeepSol protein solubility set for this set.

test: soluble on expression in E. coli; label from the status in PepcDB or PDB records

SEQ_TEXT	soluble on expression in E. coli
MSLKIESNAFRLIEPGVFKKDTLTHDFEEKDIIVKPTKASVCHADLRYYTGNRRPEALAKKLPMALFHEGIGIVEDSKHPDFQQGDKVVIVPNIPSHLRKGTYPTTSFQDNYDENAVFMGSGFDGICQDRMVVSGDNVVKVPTDLDEDVALLAELCSVSLFPINQLDEITTETSPQVAIFGDGPVGYLAATALHYIYGIDKANLIVFGAVQEKLAAFEDFATTHLVFDFDFNQYRGVHTVFECTGGKFSESAINQAIDLIDRQGHIVLMGVTEERVGINTRDVLEKGLTFSGSSRSTKREFEQLIHAFSNKQYQQALRQLIPETYYHIHDTSDLKEAMDDTAAHKGWKKTYLQYHEGHHHHHH	soluble
MSLTASPIVVFDLDGTLIDTAPDLINALNFILVREGMPAVPMAVARNMIGQGARRLLERGLELDGRVIAQDDVNRLTVDFIDYYAAHIADESRPFEGLEATLDELSESGYRFAVCTNKLEWLSKLLLDRLGLSPRFAAICGADTFGVAKPDPAILRETVAKAGGDLSAAIMVGDAGPDVGVARRAGVPVIGVEFGYTEVPIAELQPDLLVGHMRELPNAVGRLLPRREGHHHHHH	soluble
MGSDKIHHHHHHMSDQTRQPNSSSGLSQLLTGRLRSKLAAGVTHLTSGSGPTLDYSSPPGDPGLFGPDSVCWKVHADFTSMMTGGISALLLQALHPLALAGVWDHSAFRTDILGRLRRTATFIAGTTYGNRHDALALVERVKRIHLGVSGVAPDGRPYRASEPALLTWVHVAEVSSFMTAHLRYVNPLLPVAAQDQYFAETARIAEMLGASDIPRSRAGIDAYLLAMQPELVASERTRELVRILMNAPAPSASMRPAGVLMLNAGVDLLPDWAQAMLGFQRYAALRRAVTRPGVRLVAPVIRWALVNGVSKRARRRVAAGVREPE	not soluble
GMAEAKSRVGRPSGDTQNRDKLILAARNLFIERPYAQVSIREIASLAGTDPGLIRYYFGSKEKLFSTMIHETAMPVLAQLHKARRETRQESPAALLQTYYSVMSKHPHFPRLMLRIAGLDQSLPENAEVTKAFYEVVNFENIAIFQRLKDKNLLKDDVDAHCAQLSFFAMMVFPFIVPENLLERVGIELTPDFLQLLAEQNTRLLQRGLMDVKDERDE	soluble
MSLDISKKSLLTPAEAAKLLHVAPTTIRHWAQIGRLPFISTPGGHRRFDRNDILSLMSTPKINVKNDFSILIIEDDKEFADMLTQFLENLFPYAKIKIAYNPFDAGDLLHTVKPDVVMLDLMMVGMDGFSICHRIKSTPATANIIVIAMTGALTDDNVSRIVALGAETCFGKPLNFTLLEKTIKQLVEQKKATSEGHHHHHH	soluble
MGSDKIHHHHHHATRSGKTPVSVELEIGGLPGDESVDDAIDPDLENPNTSFDLLFIPKEFTFETQAISGDLTAVPIRPSEGNTHTMRHFGMGDVRGALTGWHVTAEIPHMRNEAHSLLGIITFQLTGSYARYDKTLRRFFMTNTMYGLDFSEDPAAPDFPTNPIIIGNGATLMSNAGDRKGQGMWSGRMTDISLAIQTPVSQLFPGAYTGSIIWNLISGPV	not soluble
MSDVQSSLTGTWYNELNSKMELTANKDGTLTGKYLSKVGDVYVPYPLSGRYNLQPPAGQGVALGWAVSWENSKIHSATTWSGQFFSESSPVILTQWLLSSSTARGDVWESTLVGNDSFTKTAPTEQQIAHAQLHCRAPRLK	soluble
MAAQRLGKRVLSKLQSPSRARGPGGSPGGLQKRHARVTVKYDRRELQRRLDVEKWIDGRLEELYRGMEADMPDEINIDELLELESEEERSRKIQGLLKSCGKPVEDFIQELLAKLQGLHRQPGLRQPSPSHDGSLSPLQDRARTAHP	soluble
MGSDKIHHHHHHAQDNPFKPEWFVSGGINGVTALNGSANNILGGKVSGGVWLNKIIGLRVDAEAGNVWLKGGYNAVTVGAGADILVNLMKNYTDEDRKFRLNAIFGLGYNYYSFGDDYPRLSKTNTMSGNFSLQAAFRLNSHLSIFAEPGIKISTKFYDIENKDDVFAGGMMTVGVIYKF	not soluble
MGSDKIHHHHHHMIYKVISKDEFRNFVDALVRANTSYGPRQVDTDRNGEPIYQFMPVSSASEIAFDYTVTTSSAKHFLMPFREELSKFSFRDGDWDQEVKYDAPPIVLVGLRPCDINAINILDEVMLKGPYPSPYYLARRKNTFIIGMDHLPLPDCFCRSMNRHTTDHGFNLFASDIGESYFLSINSSKAFNFLKEFETTEPTEEDDCKLIERRKLIKQSFKTNVEVTGLPVFLDLEFDSPIWKKWGDKCLNCGSCAMVCPTCYCYNVEEHFETNLESSSRQRRLYSCNLIDFAEVTGGHNFRPKNGDRLKYRYYHHYRGFAVNDNQQICVGCNRCGRACLAGINPKDVINDLRLEKESCVTCVSPSPAKT	not soluble
MADDRGVFPGQWALSGGGVESGERIEEALRREIREELGEQLLLTEITPWTFSDDIRTKTYADGRKEEIYMIYLIFDCVSANREVKINEEFQDYAWVKPEDLVHYDLNVATRKTLRLKGLL	not soluble
MGHHHHHHSHMAYNKEEKIKSLNRMQYEVTQNNGTEPPFQNEYWDHKEEGLYVDIVSGKPLFTSKDKFDSQCGWPSFTKPIEEEVEEKLDTSHGMIRTEVRSRTADSHLGHVFNDGPGPNGLRYCINSAALRFVPKHKLKEEGYESYLHLFNK	soluble
SLKNSESHGEADGGLRERKKRETKKRLTEKGIALFLERGFDNTTLDEIASAAGISRRTFFYYFKSKDEILLSLQSGIGEMLADAVRRAPSSSTPIEVVRDAAIGVCKVIPTNDMIEMDRLMRTSPSVQARKQVSYVQQEGEIYEALSERWPEPERSTALRVVAMLSVGAMRIAGDIFSQEKGVRPMVDLLEEAFGSLIQEVRSGDPRV	soluble

====

experiment: soluble on expression in E. coli; label from the status in PepcDB or PDB records
READOUT_NAME: soluble on expression in E. coli

SEQ_TEXT	OBSERVED_MEASUREMENT
MSLTKKELRKEQTNRFIESTIITTDLLLSSYLYDSTKMEEFLSFIANLDNKYSFINMYLVRTQFPGASIVKSYSSWKKENIQVRKNEKGISIFRPKVIEYVVYNNTKVTKDKWTNEIKELVKNNELEVYTYTKGFTLAKVFDISQTTLPKAQYPKQYFSYFIKEDNENINPNTKLLSLLCNFIAKHNIGITYATMGLSTSEQRFYDKNSHGIKHWIRLNDKNSITQNIYSLVKEYAHTLLGHDISAINNIENRYQAQLVAYAICKSFRLKGIELSSFDAFRSWVNTSTKEMRKKWINSVIFASKQFANDFNYFLDEIEINVDKANLRETASINELMGREGHHHHHH	soluble
MAYWLFKTEPDTFSIDTLRTQKVSCWEGVRNYQARNMMRDQVKVGDFVLIYHSSCKNVGVAGIAKVVREAYPDHFQFDPESDYYDPKSDPDNPRWIMVDIEFVRKTARVIPLSVMKAMPELENMPLVKRGNRLSIMPVTEDEWEAILGKEKLPSQRLEHHHHHH	soluble

====

assay: soluble on expression in E. coli; label from the status in PepcDB or PDB records

SEQ_TEXT	soluble on expression in E. coli
MIEWQLAELIPHAGDMILIDQVLDFDEEQINTRLTVRADGLFNQPDGSLPAWLGIELMAQSVAAYAGCQARSKGEAVKLGFLLGSRKFDCNVARFPAGSELHIHAIRSLQDDSGMGVFECTLTGPDITALARLNVYCPPNTADYLAEGAPALEHHHHHH	not soluble
MGSDKIHHHHHHMAHADIFNAIYTNKVWGNGSGEGSAEELTRDYRKFLHNFLRANHIRSVVDLGCGDWQFSRHMDWSGIEYCGIDVSSVVLETTRNFSAPNIRFQEMNGIEGELPSADLLICKDVVQHWSNTDILQLFPKLPRFRLALITNAFHPAITENQDIVTGDFRPLNLLAKPFDIKGSYIYCFMAGEPKGVFLWSRGD	not soluble
MKVAIIGATGYGGIELIRLLEQHPYFSIASLHSFSQVGECITNVYPHFQNVLVHTLQEIDVEEIEKEAEIVFLATPAGVSAELTPKLLAVGLKVIDLSGDFRMKDPFIYEQWYKRAAAKEGVLREAVYGLSEWKRSEIQKANLIANPGCFATAALLAILPLVRSGIIEEDSIIIDAKSGVSGAGKTPTTMTHFPELYDNLRIYKVNEHQHIPEIEQMLAEWNRETKPITFSTHLIPISRGIMVTLYAKVKREMEIEQLQQLYEEAYEQSAFIRIRMQGEFPSPKEVRGSNYCDMGIAYDERTGRVTIVSVIDNMMKGAAGQAIQNANIVAGLEETTGLQHMPLYL	not soluble
NMAGMNDKASMNDKASMTVKINESLPQGNGKALGTVTVTETAYGLLFTPHLTGLAPGIHGFHLHEKPSCAPGMKDGKAVPALAAGGHLDPNKTGVHLGPYNDKGHLGDLPGLVVNADGTATYPVLAPRLKSLSEVKQHALMIHAGGDNYSDHPMPLGGGGARMACGVIE	soluble
MAMKVKEVANLVGISVRTLHHYDEIGLLTPDETTESGYRLYSNENLEMLQQILFFKELGFPLKKIKEIIMSPSFDRKEALQLHKKMLLEKRARLDKVIATIDKTIQHTKGEIEMTNKEKFKGFDFSHNPYEEEARERWGDAAVDKANEYAKGMSKEKQEEFNAIYRNLAALRHGAPDSKEAQEAIKVWYDYLQNFSHYSLDAFKGLGQMYVADERFTKNIDKFGEGLAQFMCDAMEVYADRNK	not soluble
MGHHHHHHSHKKLGLKVGIEIHQQLDTKHKLFCLCPTLTREVEESNFEFFRYLRLKRSEIGEEDRAAKEEVERSRRFIYKYYDTTCLVEADEEPPREVNREALLIAIQVAKMLNMEVVDEVHVMRKIVIDGSNTTGFQRTALVAFGGFLEVDGKRVGVATLCLEEEACRKVEDGEGYAVYSLDRLGIPLVEIGTEPDIDSPEMAKKVAARLGMILRSTGKVKRGLGTIRQDVNISIRDGARVEIKGVQELDILDKIVEYEVLRQVNLLKIR	soluble
MMMLPEACIANILAFTSPADAFSSSEVSSVFRLAGDSDFVWEKFLPSDYKSLISQSTDHHWNISSKKEIYRCLCDSLLIDNARKLFKINKFSGKISYVLSARDISITHSDHASYWSWSNVSDSRFSESAELIITDRLEIEGKIQTRVLSANTRYGAYLIVKVTKGAYGLDLVPAETSIKSKNGQISKSATYLCCLDEKKQQMKRLFYGNREERMAMTVEAVGGDGKRREPKCRDDGWMEIELGEFETREGEDDEVNMTLTEVKGYQLKGGILIDGIEVRPKT	soluble
MGSDKIHHHHHHMDFWKCPHCGFVVSKTHQEMTQDQWSQLNSSWHHNFENNRESRTTNQPPYADQALVLAILKENDILDLDDGLDYAAGYGTFSKCLKKYFNIGIRIFDRYVHSSDEGMRYVAQKELSRYKLVINSAMFEHVLNRHALDEVNGLVKDDGVLMLHTVVCERIPKDPGWFYIDTMVHTALHTNKSMSILMDQWGYGASIYSPQAKSWFLFKRDNPLIDDLEAKVAGINHELQTTYLHYKRGFVDYWKGF	not soluble
MEKTPAETTAVSAGNVPRDSIPCITNVSADTRGRTRPSRPATVPQRRPARIGHFRRRSASLSFLDWPDGSVTEGVRTTSASVAASAARFDEIRRRRQSINDEMKERTLEDALAVELVNETFRCSVTSDARKDLQKLVRRVSGTVLRLSWPNGWFFTYCDLLRVGYFGHLNIKGLEKTFLCCDKFLPGLEHHHHHH	not soluble
MELKYVIPNMEKTFGQLEYAGEGNIEQRRINGRPTILSRSYNLYSTIQRADDIVVILPSEAGEKHFESDEKVKLINPHITAEGYKIGNRGFTNYIMHADDMVKALEHHHHHH	not soluble
NSDSMILVTVNPKTKKTTMTSLERDTLTTLSGPKNNEMNGVEAKLNAAYAAGGAQMAIMTVQDLLNITIDNYVQINMQGLIDLVNAVGGITVTNEFDFPISIAENEPEYQATVAPGTHKINGEQALVYARMRYDDPEGDYGRQKRQREVIQKVLKKILA	not soluble
MERKHHFVLVHNAYHGAWIWYKLKPLLESAGHRVTAVELAASGIDPRPIQAVETVDEYSKPLIETLKSLPENEEVILVGFSFGGINIALAADIFPAKIKVLVFLNAFLPDTTHVPSHVLDKYMEMPGGLGDCEFSSHETRNGTMSLLKMGPKFMKARLYQNCPIEDYELAKMLHRQGSFFTEDLSKKEKFSEEGYGSVQRVYVMSSEDKAIPCDFIRWMIDNFNVSKVYEIDGGDHMVMLSKPQKLFDSLSAIATDYM	soluble
MARETHDREDLLLEGVNLPERARLLHRASGREWVIGWRTGGGAAFYDGPDRVYQFNADNQLRRVYLDGSKLAAEGGRLCELRRPEPTNPDGSAGDRTQKVKLVWQPIDSAIQRNVLEQWAETRQQLLTALELFRERDLPNVTIASTAPDGSNSSLSTQPSIYSWESVGIDAFEMLDRTSGWLVSITDNPEIAAQPNA	soluble
